Values compiled from PubChem BioAssay AID2060502.

tested on: 885724-159-R-J1-PDC complex spheroid viability; assay: Anticancer human tumor 885724-159-R-J1-PDC patient-derived pancreatic adenocarcinoma cell line growth inhibition [GQUAD]; settings: second compound 10 µM; first compound 0.1 µM; hits give low values;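 note: spheroids exposed to agents for seven days before readout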
Each record is given satisfied if its reported viability, T/C is strictly below 70%. Records at or above 70% are given not satisfied.

Q: Determine whether this molecule shows viability, T/C lower than 70% (ties excluded): Cc1cccc(N(C)C(=O)C2C(O)CCN2c2nc(C)cc(C(F)(F)F)c2C#N)c1 (stereo unspecified) + CN(C)c1ccc(Nc2c3ccc(NC(=O)CCN4CCCC4)cc3nc3cc(NC(=O)CCN4CCCC4)ccc23)cc1
A: not satisfied

Q: Please determine if COc1cc(C2c3cc4c(cc3C(OC3OC5COC(C)OC5C(O)C3O)C3COC(=O)C23)OCO4)cc(OC)c1O (stereo unspecified) + Cc1cnc(CNC(=O)c2c(=O)c3ccc(N4CCCN(C)CC4)nc3n3c2sc2ccccc23)cn1 is below 70% in terms of viability, T/C.
A: not satisfied

Q: # strict comparison: is reported viability, T/C < 70%? input = Nc1ccn(C2OC(CO)C(O)C2(F)F)c(=O)n1 (stereo unspecified) + Cc1[nH]c2ccc(F)cc2c1-c1nc2c3cccnc3c3ncccc3c2[nH]1
A: not satisfied

Q: Does CC1COCCN1c1cc(C2(S(C)(=N)=O)CC2)nc(-c2ccnc3[nH]ccc23)n1 (stereo unspecified) + Cc1[nH]c2ccc(F)cc2c1-c1nc2c3cccnc3c3ncccc3c2[nH]1 have viability, T/C strictly under 70%?
A: not satisfied

Q: Strictly below 70%: is that where viability, T/C of COc1cccc2c1C(=O)c1c(O)c3c(c(O)c1C2=O)CC(O)(C(=O)CO)CC3OC1CC(N)C(O)C(C)O1 (stereo unspecified) + Cc1cnc(CNC(=O)c2c(=O)c3ccc(N4CCCN(C)CC4)nc3n3c2sc2ccccc23)cn1 sits?
A: not satisfied

Q: Would you kindly verify if viability, T/C of COc1cccc2c1C(=O)c1c(O)c3c(c(O)c1C2=O)CC(O)(C(=O)CO)CC3OC1CC(N)C(O)C(C)O1 (stereo unspecified) + Cc1[nH]c2ccc(F)cc2c1-c1nc2c3cccnc3c3ncccc3c2[nH]1 is strictly less than 70%?
A: satisfied

Q: viability, T/C under 70%? Item: CC1COCCN1c1cc(-c2ccnn2C)c2ccnc(-c3ccn[nH]3)c2n1 (stereo unspecified) + Cc1cnc(CNC(=O)c2c(=O)c3ccc(N4CCCN(C)CC4)nc3n3c2sc2ccccc23)cn1
A: satisfied

Q: Just wondering, is viability, T/C of COc1cc(C2c3cc4c(cc3C(OC3OC5COC(C)OC5C(O)C3O)C3COC(=O)C23)OCO4)cc(OC)c1O (stereo unspecified) + CN(C)c1ccc(Nc2c3ccc(NC(=O)CCN4CCCC4)cc3nc3cc(NC(=O)CCN4CCCC4)ccc23)cc1 below 70%?
A: not satisfied

Q: Does the reported viability, T/C of Cc1cccc(N(C)C(=O)C2C(O)CCN2c2nc(C)cc(C(F)(F)F)c2C#N)c1 (stereo unspecified) + Cc1cnc(CNC(=O)c2c(=O)c3ccc(N4CCCN(C)CC4)nc3n3c2sc2ccccc23)cn1 stay below 70%?
A: not satisfied

Q: Determine if Nc1ccn(C2OC(CO)C(O)C2(F)F)c(=O)n1 (stereo unspecified) + CN(C)c1ccc(Nc2c3ccc(NC(=O)CCN4CCCC4)cc3nc3cc(NC(=O)CCN4CCCC4)ccc23)cc1 shows viability, T/C strictly lower than 70%.
A: satisfied
